The reported numbers originate from patent US20250313625A1.

Form field: koff (one value per entry).
Target entity: T1, human LAG3 (form used in Octet, Biacore and HDX-MS not given) (human, UniProt P18627 23-450, limits assumed)
T1 sequence (looked up): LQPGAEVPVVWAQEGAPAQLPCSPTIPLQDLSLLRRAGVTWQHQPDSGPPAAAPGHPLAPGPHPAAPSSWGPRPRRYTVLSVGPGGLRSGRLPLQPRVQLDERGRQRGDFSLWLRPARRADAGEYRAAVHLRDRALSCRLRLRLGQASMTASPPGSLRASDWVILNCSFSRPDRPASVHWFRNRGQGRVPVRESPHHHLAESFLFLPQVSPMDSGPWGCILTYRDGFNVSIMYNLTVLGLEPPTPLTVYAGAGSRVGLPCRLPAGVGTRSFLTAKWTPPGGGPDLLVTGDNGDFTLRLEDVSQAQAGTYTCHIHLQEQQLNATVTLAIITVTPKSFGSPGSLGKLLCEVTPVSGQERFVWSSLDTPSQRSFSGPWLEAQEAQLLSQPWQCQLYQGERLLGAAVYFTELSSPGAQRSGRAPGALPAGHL
Experiment notes: BLI (Octet), 1:1 fit
Readout name: koff (s⁻¹)

Binder	Quantitative readout
029c (antibody, human IgG4, V domains shown, human IgG4 S228P / kappa chimeric antibody; also called chimeric antibody 029; not shown: human kappa light chain constant region (pcDNA3.4-hIgGk vector)) VH: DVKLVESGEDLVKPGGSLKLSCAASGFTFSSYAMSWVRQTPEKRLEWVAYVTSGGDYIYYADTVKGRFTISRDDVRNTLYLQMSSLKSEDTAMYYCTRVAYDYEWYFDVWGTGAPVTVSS VL: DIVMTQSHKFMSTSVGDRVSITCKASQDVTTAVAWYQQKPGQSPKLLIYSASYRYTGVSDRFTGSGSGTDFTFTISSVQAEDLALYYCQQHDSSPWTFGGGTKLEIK	0.0268
hu029.55 (antibody, V domains shown, humanized from 029c) VH: QVQLVESGGGLVKPGGSLRLSCAASGFTFSSYAMSWIRQAPGKGLEWVSYVTSGGDYIYYADTVKGRFTISRDDAKNSLYLQMNSLRAEDTAVYYCTRVAYDYEWYFDVWGQGTLVTVSS VL: DIQMTQSPSSVSASVGDRVTITCKASQDVTTAVAWYQQKPGKAPKLLIYSASYRYTGVPSRFSGSGSGTDFTLTISSLQPEDFATYYCQQHDSSPWTFGQGTKLEIK	0.0197
021c (antibody, human IgG4, V domains shown, human IgG4 S228P / kappa chimeric antibody; also called chimeric antibody 021; not shown: human kappa light chain constant region (pcDNA3.4-hIgGk vector)) VH: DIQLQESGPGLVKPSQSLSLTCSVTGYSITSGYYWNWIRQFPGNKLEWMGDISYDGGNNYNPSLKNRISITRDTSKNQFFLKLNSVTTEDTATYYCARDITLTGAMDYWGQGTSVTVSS VL: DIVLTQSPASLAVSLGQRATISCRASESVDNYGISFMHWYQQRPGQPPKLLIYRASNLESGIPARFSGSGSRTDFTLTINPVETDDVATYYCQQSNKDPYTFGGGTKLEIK	0.00271
